Organism: Homo sapiens
Test: Inhibition of TCEP-treated human SOD1 A4V mutant aggregation at 50 uM measured after 24 hrs by thioflavin-T fluorescence assay relative to control
reported-metric: inhibition (%)

{"chemical-smiles": "CCn1c2ccccc2c2cc(NC(=O)NNC(=S)Nc3ccc(Cl)cc3)ccc21", "inhibition / %": 61.1}
{"chemical-smiles": "CCn1c2ccccc2c2cc(NC(=O)NNC(=O)NCCc3ccccc3)ccc21", "inhibition / %": 62.8}

P = CCn1c2ccccc2c2cc(NC(=O)NNC(=O)Nc3ccccc3)ccc21
Q = CCn1c2ccccc2c2cc(NC(=O)NNC(=O)NCc3ccccc3)ccc21
R = CCn1c2ccccc2c2cc(NC(=O)NNC(=S)NCCc3ccccc3)ccc21
Data request: List items by inhibition in falling order. Give the labels in the order specified.
Data returned: R, P, Q
(R: 68.5%, P: 46.9%, Q: 31.9%)
